From: paper PMC9482650

MEASURED ON: T1, DFNB31_3, Q9P202
T1 sequence (Q9P202 811-907, limits assumed, looked up): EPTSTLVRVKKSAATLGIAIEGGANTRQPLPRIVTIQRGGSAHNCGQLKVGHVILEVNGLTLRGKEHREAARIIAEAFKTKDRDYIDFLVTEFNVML
TEST: holdup assay
Parameters: key: below the threshold = too weak to quantify, mostly under pKd 3.1 to 4
RUN CONDITIONS: plain residues with an end cap or a label only (N-terminal biotin on a linker: ado-ado)
ENDPOINT NAME: pKd
Respond numerically, and do not add a unit to the figure.

Illustrative cases are given below, each with its answer.
INSERT INTO assay_data (binder, assay_result) VALUES
  ('KSRPENGTVC [TMEM178B, H3BS89]', 3.99),
  ('SSSVNVSSNL [CXCR1, P25024]', 4.18),
  ('NNMAFETTHF [SLC5A12, Q1EHB4]', 3.78),
  ('QQGLLPHSSC [TYRO3, Q06418]', 4.21),
  ('ADEMICITTL [CACNA1D, Q01668]', 4.89);

# next binder below
// query Fill in the blank: the reported pKd of KIEDVEITLV [FCHSD2, O94868] is ____.
// result 4.79
